- Tested on: NHEM-hTERT
- Assay: cell viability relative to DMSO control (fraction of DMSO control); higher = less cytotoxic, active = 0.5 or less
- Assay Context: 1 µM; 120 h
The label is true for cell viability below 0.9 and false for cell viability equal to or exceeding 0.9.

Compound	Label Value
C[C@@H]1C[C@H]2[C@@H]3CCC4=CC(=O)C=C[C@]4(C)[C@@]3(F)[C@@H](O)C[C@]2(C)[C@@]1(O)C(=O)COP(=O)([O-])[O-].[Na+].[Na+] [Dexamethasone Sodium Phosphate]	false
S=c1nc[nH]c2nc[nH]c12 [Mercaptopurine]	false
CC(C)C[C@H](NC(=O)[C@H](CCc1ccccc1)NC(=O)CN1CCOCC1)C(=O)N[C@@H](Cc1ccccc1)C(=O)N[C@@H](CC(C)C)C(=O)[C@@]1(C)CO1 [Carfilzomib]	true
COc1cc(Nc2c(C#N)cnc3cc(OCCCN4CCN(C)CC4)c(OC)cc23)c(Cl)cc1Cl [Bosutinib]	false
CCN(CC)CCNC(=O)c1c(C)[nH]c(/C=C2\C(=O)Nc3ccc(F)cc32)c1C.C[C@@H](CC(=O)O)C(=O)O [Sunitinib Malate]	false
Cc1ccc(=O)n(-c2ccccc2)c1 [Pirfenidone]	false
COC(=O)C1=C(C)NC(C)=C(C(=O)OC)C1c1ccccc1[N+](=O)[O-] [Nifedipine]	false
CO[C@@]12[C@H](COC(N)=O)C3=C(C(=O)C(C)=C(N)C3=O)N1C[C@@H]1N[C@@H]12 [Mitomycin C]	true
C=C(c1ccc(C(=O)O)cc1)c1cc2c(cc1C)C(C)(C)CCC2(C)C [Bexarotene]	false
CC(=O)O[C@]1(C(C)=O)CC[C@H]2[C@@H]3C=C(C)C4=CC(=O)CC[C@]4(C)[C@H]3CC[C@@]21C [Megestrol acetate]	false
CC(C)C[C@@H](NC(=O)[C@H](O)[C@@H](N)Cc1ccccc1)C(=O)O.Cl [Bestatin hydrochloride]	false
CC(=O)O[C@H]1C(=O)[C@]2(C)[C@@H](O)C[C@H]3OC[C@@]3(OC(C)=O)[C@@H]2[C@@H](OC(=O)c2ccccc2)[C@]2(O)C[C@H](OC(=O)[C@H](O)[C@@H](NC(=O)c3ccccc3)c3ccccc3)C(C)=C1C2(C)C [Paclitaxel]	true
CCc1ccc(CCOc2ccc(CC3SC(=O)NC3=O)cc2)nc1.Cl (centres undefined) [Pioglitazone hydrochloride]	false
COc1cccc2c1C(=O)c1c(O)c3c(c(O)c1C2=O)C[C@@](O)(C(C)=O)C[C@@H]3O[C@H]1C[C@H](N)[C@H](O)[C@H](C)O1.Cl [Daunorubicin hydrochloride]	true
CC(C)C[C@H](NC(=O)[C@H](Cc1ccccc1)NC(=O)c1cnccn1)B(O)O [Bortezomib]	true
Nc1cccc2c1C(=O)N(C1CCC(=O)NC1=O)C2=O (centres undefined) [Pomalidomide]	false
CS(=O)(=O)OCCCCOS(C)(=O)=O [Busulfan]	false
CCCCCCCCCCCCCCCCOP(=O)([O-])OCC[N+](C)(C)C [Miltefosine]	false
CCCC(=O)O[C@]1(C(=O)CO)CC[C@H]2[C@@H]3CCC4=CC(=O)CC[C@]4(C)[C@H]3[C@@H](O)C[C@@]21C [Hydrocortisone butyrate]	false
C[C@@H](Oc1cc(-c2cnn(C3CCNCC3)c2)cnc1N)c1c(Cl)ccc(F)c1Cl [Crizotinib]	false
Cc1ccc(-c2ncc(Cl)cc2-c2ccc(S(C)(=O)=O)cc2)cn1 [Etoricoxib]	false
Nc1ccccc1NC(=O)c1ccc(CNC(=O)OCc2cccnc2)cc1 [Entinostat]	true
COc1cc2c(cc1O)CC[C@@H]1[C@@H]2CC[C@]2(C)[C@@H](O)CC[C@@H]12 [2-Methoxyestradiol]	true
O=c1[nH]c(=O)n([C@H]2C[C@H](O)[C@@H](CO)O2)cc1F [Floxuridine]	false
N#Cc1ccc(C(c2ccc(C#N)cc2)n2cncn2)cc1 [Letrozole]	false
